Just for reference, ChEMBL document CHEMBL2169749 is where these values come from.

assay: Total clearance in Sprague-Dawley rat at 1 mg/kg, iv; assay type: ADME, organism-based; design: dose 1 mg/kg, route intravenous; conditions: in vivo
Reported clearance values for a set of compounds

{"columns": ["CHEMICAL_STRING", "clearance"],
 "data": [
  ["CNc1c(-c2ccc(=O)n(-c3ccccc3C)n2)c(-c2ccc(F)cc2)nn1C", "20.6 mL/min/kg"],
  ["Cc1ccccc1-n1nc(-c2c(-c3ccc(F)cc3)nn3c2N[C@H](CO)CC3)ccc1=O", "3.8 mL/min/kg"]
]}

* * *

biological target: Mitogen-activated protein kinase 14 (Homo sapiens, UniProt Q16539); test: Inhibition of human MAPK p38alpha by Z'-LYTE assay
Sequence (Q16539 whole entry, looked up): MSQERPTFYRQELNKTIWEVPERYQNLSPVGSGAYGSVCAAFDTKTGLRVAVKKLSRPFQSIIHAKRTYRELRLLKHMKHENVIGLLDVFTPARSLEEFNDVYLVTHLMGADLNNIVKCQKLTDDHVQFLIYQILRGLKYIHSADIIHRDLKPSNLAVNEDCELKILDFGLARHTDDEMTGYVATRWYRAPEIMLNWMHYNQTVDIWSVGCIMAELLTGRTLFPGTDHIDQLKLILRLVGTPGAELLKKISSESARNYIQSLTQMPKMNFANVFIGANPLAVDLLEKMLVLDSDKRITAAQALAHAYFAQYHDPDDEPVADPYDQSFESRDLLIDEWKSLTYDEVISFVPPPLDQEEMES
RECORDED_METRIC: IC50 (µM)

{"columns": ["CHEMICAL_STRING", "RECORDED_METRIC", "UNITS_SYMBOL", "ASSAY_RESULT"],
 "data": [
  ["Cc1ccccc1-n1nc(-c2c(-c3ccc(F)cc3)nn3c2NC[C@@H](CO)C3)ccc1=O", "IC50", "µM", 0.011]
]}
